# experimental-details: Toxicity liver stage against HepG2, at 10uM
# Format: cell-based
# Design: test concentration 10 uM, cell line HepG2-A16-CD81EGFP
# assay-setup: human, HepG2-A16-CD81EGFP cells; read-out: INHIBITION
Overview of recorded cytotoxicity at 10 µM for various compounds
metric: cytotoxicity at 10 µM (%)

- Cc1ccccc1CNC(=O)CNc1ccc(OC2CCOC2)cc1 (stereo unspecified): 2.77
- CCc1ncnc2c1CCN(C(=O)Cc1ccccn1)CC2: -8.75
- CC(C)(C)OC(=O)N1CCCN(c2nnc(Br)s2)CC1: 10.5
- CC(C)c1ccc(-n2ncc(C(=O)N(C)C3CCN(C)CC3)c2N)cc1: -6.57
- N[C@@H](Cc1c[nH]cn1)C(=O)N1CCC(Oc2ccc(F)cc2)CC1: 0.828
- CCOC(=O)CCNC(=O)N1CCOC(Cc2cccc(OC)c2)C1 (stereo unspecified): -1.13
- Nc1nccnc1CC1CCCN(Cc2c[nH]c3ccccc23)C1 (stereo unspecified): 2.81
- Cc1cc(CN2CC[C@H]3OCC[C@@]3(C(=O)NC(C)C)C2)no1: 5.86
- CCCC(O)CN1CC(C)(C)CN(C(=O)c2ccccc2)CC1=O (stereo unspecified): -0.295
- CC(CN1CCOCC1)NC1CCN(Cc2cccc(O)c2)CC1 (stereo unspecified): -0.683
- Cc1cc2c(cc1C)C(NC1CC1)CCCO2 (stereo unspecified): 4.57
